Below, each of the compounds is paired with its reported viability, T/C value.
- System: MPNST multicellular tumor spheroids, viability % test/control
- experiment: Anticancer human tumor MPNST cell line growth inhibition;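 also: luminescence signal used as surrogate for viable cell amount; spheroids exposed to agents for seven days after three days of growth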
- assay.context: second compound 0.0949 µM; first compound 1 µM; active compounds read low

Prompt: Sample CC1COCCN1c1cc(-c2ccnn2C)c2ccnc(-c3ccn[nH]3)c2n1 (stereo unspecified) + CC[C@@]1(O)C(=O)OCc2c1cc1n(c2=O)Cc2cc3c(CN(C)C)c(O)ccc3nc2-1 — what was its viability, T/C?
Completion: 28.3%

Prompt: So what's the measured viability, T/C for this one? [2H]c1nc(C)nc([2H])c1-c1cc(NC[C@@H](C)c2cccc3c(C(=O)NC)ccnc23)ncn1 + CC[C@@]1(O)C(=O)OCc2c1cc1n(c2=O)Cc2cc3c(CN(C)C)c(O)ccc3nc2-1
Completion: 35.4%

Prompt: Could you tell me which viability, T/C is on file for COc1ccc([C@@H](O)c2cc(-c3ncnc4cc(N5CCOCC5)ccc34)c(F)cc2Cl)nn1 + CC[C@@]1(O)C(=O)OCc2c1cc1n(c2=O)Cc2cc3c(CN(C)C)c(O)ccc3nc2-1 ?
Completion: 34.7%

Prompt: Reported viability, T/C for COc1cc(C)[nH]c(=O)c1CN1CCc2c(Cl)cc(C(OC)C3COC3)c(Cl)c2C1=O (stereo unspecified) + CC[C@@]1(O)C(=O)OCc2c1cc1n(c2=O)Cc2cc3c(CN(C)C)c(O)ccc3nc2-1 : what is it?
Completion: 47.7%

Prompt: Entry Cc1cc(C)c(CNC(=O)c2cc(-c3ccc(CN4CCOCC4)cc3)cc3c2cnn3C2CCCC2)c(=O)[nH]1 + CC[C@@]1(O)C(=O)OCc2c1cc1n(c2=O)Cc2cc3c(CN(C)C)c(O)ccc3nc2-1 : reported viability, T/C = ?
Completion: 52.4%

Prompt: Which value of viability, T/C has been reported for CC(C)n1c(=O)n(C)c2cnc3cc(F)c(-c4ccc(OCCCN5CCCCC5)nc4)cc3c21 + CC[C@@]1(O)C(=O)OCc2c1cc1n(c2=O)Cc2cc3c(CN(C)C)c(O)ccc3nc2-1 in the records?
Completion: 39.8%

Hello, the source for this data is PubChem BioAssay AID1845205, in case you need it.
